Data provenance is patent US20030068675.

Target: T1, ZFP SBS#970 (synthetic)
T1 chain: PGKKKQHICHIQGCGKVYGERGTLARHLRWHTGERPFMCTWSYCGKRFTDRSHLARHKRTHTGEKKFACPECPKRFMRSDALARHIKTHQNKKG
Assay: EMSA
Conditions: tags: MBP fusion
measured_parameter: Kd (nM)
Dear colleague, please return just the value in nM, with no unit written.

Reported Kd for GTGGGCGCC (dsDNA) DNA 1: GTGGGCGCC DNA 2: GGCGCCCAC was 1.86
